Recorded Dimer Amplitude values for a group of molecules are listed next.
# TESTED_TARGET: CRBN-DDB1/BRD4 (Homo sapiens (Human), UniProt O60885+Q96SW2)
# MEASUREMENT_PROTOCOL: CRBN-DDB1/BRD4 Dimerization Assay;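 further: AlphaScreen proximity signal between GST-tagged BRD4 and CRBN-DDB1 with glutathione donor and nickel chelate acceptor beads, read after 1 hr compound incubation at room temperature, values from Gaussian curve fit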
# Type: binding
# TEST_PARAMETERS: Gaussian fit of dimerization signal
Enter the number alone.

Cc1sc2c(c1C)C(c1ccc(Cl)cc1)=N[C@@H](CC(=O)NCCCN1CCN(C(=O)CCCCCNC(=O)COc3cccc4c3C(=O)N(C3CCC(=O)NC3=O)C4=O)CC1)c1nnc(C)n1-2 (some centres unmarked)    13116
Cc1sc2c(c1C)C(c1ccc(Cl)cc1)=N[C@@H](CC(=O)NCCCOCCOCCOCCCNC(=O)COc1cccc3c1C(=O)N(C1CCC(=O)NC1=O)C3=O)c1nnc(C)n1-2 (some centres unmarked)    16889
CC[C@@H]1C(=O)N(C)c2cnc(Nc3ccc(C(=O)NCCCCCCNC(=O)COc4cccc5c4C(=O)N(C4CCC(=O)NC4=O)C5=O)cc3OC)nc2N1C1CCCC1 (some centres unmarked)    31800

Record Cc1sc2c(c1C)C(c1ccc(Cl)cc1)=N[C@@H](CC(=O)NCCOCCOc1cccc3c1C(=O)N(C1CCC(=O)NC1=O)C3=O)c1nnc(C)n1-2 (some centres unmarked) . Reported Dimer Amplitude: 11278

Lab note: Cc1sc2c(c1C)C(c1ccc(C#N)cc1)=N[C@@H](CC(=O)NCCCCNC(=O)COc1cccc3c1C(=O)N(C1CCC(=O)NC1=O)C3=O)c1nnc(C)n1-2 (some centres unmarked) gave Dimer Amplitude of 16182

Input Cc1sc2c(c1C)C(c1ccc(Cl)cc1)=N[C@@H](CC(=O)NCCCCOc1cccc3c1C(=O)N(C1CCC(=O)NC1=O)C3=O)c1nnc(C)n1-2 (some centres unmarked) . Output Dimer Amplitude: 1752

Please fill in: Dimer Amplitude reported for Cc1sc2c(c1C)C(c1ccc(Cl)cc1)=N[C@@H](CC(=O)NCCCCCCNC(=O)COc1cccc3c1C(=O)N(C1CCC(=O)NC1=O)C3=O)c1nnc(C)n1-2 (some centres unmarked) = 18644

In plain terms, Cc1sc2c(c1C)C(c1ccc(Cl)cc1)=N[C@@H](CC(=O)NCCNC(=O)COc1cccc3c1C(=O)N(C1CCC(=O)NC1=O)C3=O)c1nnc(C)n1-2 (some centres unmarked) has a documented Dimer Amplitude of 16389

According to the records, this molecule Cc1sc2c(c1C)C(c1ccc(Cl)cc1)=N[C@@H](CC(=O)NCCCCCCCCOc1cccc3c1C(=O)N(C1CCC(=O)NC1=O)C3=O)c1nnc(C)n1-2 (some centres unmarked) displays Dimer Amplitude of 758.9

Looking up Cc1sc2c(c1C)C(c1ccc(Cl)cc1)=N[C@@H](CC(=O)NCCOCCOCCNC(=O)COc1cccc3c1C(=O)N(C1CCC(=O)NC1=O)C3=O)c1nnc(C)n1-2 (some centres unmarked) , I found its Dimer Amplitude recorded as 31348

Briefly, Dimer Amplitude measured for CC[C@@H]1C(=O)N(C)c2cnc(Nc3ccc(C(=O)NCCCCNC(=O)COc4cccc5c4C(=O)N(C4CCC(=O)NC4=O)C5=O)cc3OC)nc2N1C1CCCC1 (some centres unmarked) : 20549

* * *

# TESTED_TARGET: GST-FKBP12 (WT) (Homo sapiens (Human))
# Sequence (P62942 whole entry): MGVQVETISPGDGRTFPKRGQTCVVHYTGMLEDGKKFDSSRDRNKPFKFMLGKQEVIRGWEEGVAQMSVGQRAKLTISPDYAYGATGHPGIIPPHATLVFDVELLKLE
# MEASUREMENT_PROTOCOL: FKBP12 Ligand-Displacement AlphaScreen Assay (WT)
# Format: binding
# TEST_PARAMETERS: read-out: IC50 (nM) FKBP
Here, each record is paired with measured IC50 data.

Sample answers from the record:
CCC(C)(C)C(=O)C(=O)N1CCC[C@H]1C(=O)O[C@H](CCc1ccc(OC)c(OC)c1)c1cccc(OCC(=O)NCCCCNC(=O)COc2cccc3c2C(=O)N(C2CCC(=O)NC2=O)C3=O)c1 (stereo partly drawn)    1830 nM
CCC(C)(C)C(=O)C(=O)N1CCCC[C@H]1C(=O)O[C@H](CCc1ccc(OC)c(OC)c1)c1cccc(OCC(=O)NCCCCNC(=O)COc2cccc3c2C(=O)N(C2CCC(=O)NC2=O)C3=O)c1 (stereo partly drawn)    408 nM
CC[C@H](C(=O)N1CCCC[C@H]1C(=O)O[C@H](CCc1ccc(OC)c(OC)c1)c1cccc(OCC(=O)NCCCOCCOCCOCCCNC(=O)COc2cccc3c2C(=O)N(C2CCC(=O)NC2=O)C3=O)c1)c1cc(OC)c(OC)c(OC)c1 (stereo partly drawn)    > 50000 nM
CC[C@H](C(=O)N1CCCC[C@H]1C(=O)O[C@H](CCc1ccc(OC)c(OC)c1)c1cccc(OCC(=O)NCCCCCCNC(=O)COc2cccc3c2C(=O)N(C2CCC(=O)NC2=O)C3=O)c1)c1cc(OC)c(OC)c(OC)c1 (stereo partly drawn)    > 50000 nM
CC[C@H](C(=O)N1CCCC[C@H]1C(=O)O[C@H](CCc1ccc(OC)c(OC)c1)c1cccc(OCC(=O)NCCCCNC(=O)COc2cccc3c2C(=O)N(C2CCC(=O)NC2=O)C3=O)c1)c1cc(OC)c(OC)c(OC)c1 (stereo partly drawn)    > 50000 nM

API: the following record is the query input.
GET /value?item= COc1ccc(CC[C@@H](OC(=O)[C@@H]2CCCCN2C(=O)Cc2ccccc2)c2cccc(OCC(=O)NCCCCNC(=O)COc3cccc4c3C(=O)N(C3CCC(=O)NC3=O)C4=O)c2)cc1OC (stereo partly drawn) &field=IC50 returns > 50000 nM

* * *

Recorded measurements of DC50, one per entry
# TESTED_TARGET: fusion of mutant FKBP12 to nanoluciferase (Homo sapiens (Human), UniProt P62942+Q96SW2, F36V)
# MEASUREMENT_PROTOCOL: FKBP Dual Luciferase Assay (mutant FKBP12, 36V);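 further: cells exposed to rising degrader concentrations, FKBP12 fusion level read as NLuc/FLuc signal ratio, lower ratio means more degradation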
# Type: cell-based
# TEST_PARAMETERS: FKBP 36V, 4 hours; read-out: DC50 (nM) FKBP 36V
Please report the result as a number followed by the unit.

CC[C@H](C(=O)N1CCCC[C@H]1C(=O)OC(CCc1ccc(OC)c(OC)c1)c1cccc(OCC(=O)NCc2ccc(CNC(=O)COc3cccc4c3C(=O)N(C3CCC(=O)NC3=O)C4=O)cc2)c1)c1cc(OC)c(OC)c(OC)c1 (stereo partly shown)    15 nM
CC[C@H](C(=O)N1CCCC[C@H]1C(=O)OC(CCc1ccc(OC)c(OC)c1)c1cccc(OCC(=O)NCCCCOc2cccc3c2C(=O)N(C2CCC(=O)NC2=O)C3=O)c1)c1cc(OC)c(OC)c(OC)c1 (stereo partly shown)    6.4 nM
CC[C@H](C(=O)N1CCCC[C@H]1C(=O)O[C@H](CCc1ccc(OC)c(OC)c1)c1cccc(OCC(=O)NCCCOCCOCCOCCCNC(=O)COc2cccc3c2C(=O)N(C2CCC(=O)NC2=O)C3=O)c1)c1cc(OC)c(OC)c(OC)c1 (stereo partly shown)    0.5 nM

Value of measured DC50 for the entry CC[C@H](C(=O)N1CCCC[C@H]1C(=O)O[C@H](CCc1ccc(OC)c(OC)c1)c1cccc(OCC(=O)NCCCCCCNC(=O)COc2cccc3c2C(=O)N(C2CCC(=O)NC2=O)C3=O)c1)c1cc(OC)c(OC)c(OC)c1 (stereo partly shown) : 0.8 nM

* * *

# TESTED_TARGET: IKZF1 adjoined to nanoluciferase (Nluc) (Homo sapiens (Human))
# MEASUREMENT_PROTOCOL: IKZF1 Dual Luciferase Assay
# Assay type: cell-based
# TEST_PARAMETERS: 4 hours; read-out: Nluc/Fluc IKZF1 IC50
The compounds listed here are annotated with their DC50.
Write the answer as a number in nM, unit excluded.

O=C1CCC(N2C(=O)c3cccc(NCc4ccccc4)c3C2=O)C(=O)N1 (centres unmarked)    23.9
CCN(CC)c1cccc2c1C(=O)N(C1CCC(=O)NC1=O)C2=O (centres unmarked)    140

Turning now to a further record.
Lab note: measured DC50 of CC(=O)NCc1cccc2c1C(=O)N(C1CCC(=O)NC1=O)C2=O (centres unmarked) was 1020

* * *

# System: SBC-5
# MEASUREMENT_PROTOCOL: Cell viability, ATPlite, 72 hours
# Assay type: cell-based
# TEST_PARAMETERS: SBC-5, 72 hours
MEASUREMENT_NAME: IC50 (nM)
Just the number please, in nM, no unit attached.

IC50 for SBC-5 with input Cc1sc2c(c1C)C(c1ccc(Cl)cc1)=N[C@@H](CC(=O)OC(C)(C)C)c1nnc(C)n1-2 [JQ1] equals 1240

* * *

# Tested on: MDA-MB-436
# MEASUREMENT_PROTOCOL: Cell viability, ATPlite, 72 hours
# Type: cell-based
# TEST_PARAMETERS: MDA-MB-436, 72 hours
MEASUREMENT_NAME: pIC50
// scale note: pIC50 = -log10(conc_M); give the bare number

The reported pIC50 of the compound Cc1sc2c(c1C)C(c1ccc(Cl)cc1)=N[C@@H](CC(=O)OC(C)(C)C)c1nnc(C)n1-2 was 6.76
